Source of measurements: patent US7476671B2

target: DPP-IV (Homo sapiens); construct: an extract of the human colon carcinoma cell line Caco-2 is used as the DPP IV source; endogenous in cells; Nonidet-P40 solubilised extract; experiment: DPP-IV assay with extract of the human colon carcinoma cell line Caco-2 as DPP IV source, AFC substrate, fluorescence; settings: solubilised Caco-2 protein, substrate 100 μM, 60 minutes at ambient temperature, 11-point curves; read-out: DPP IV inhibition IC50
Sequence (P27487 whole entry): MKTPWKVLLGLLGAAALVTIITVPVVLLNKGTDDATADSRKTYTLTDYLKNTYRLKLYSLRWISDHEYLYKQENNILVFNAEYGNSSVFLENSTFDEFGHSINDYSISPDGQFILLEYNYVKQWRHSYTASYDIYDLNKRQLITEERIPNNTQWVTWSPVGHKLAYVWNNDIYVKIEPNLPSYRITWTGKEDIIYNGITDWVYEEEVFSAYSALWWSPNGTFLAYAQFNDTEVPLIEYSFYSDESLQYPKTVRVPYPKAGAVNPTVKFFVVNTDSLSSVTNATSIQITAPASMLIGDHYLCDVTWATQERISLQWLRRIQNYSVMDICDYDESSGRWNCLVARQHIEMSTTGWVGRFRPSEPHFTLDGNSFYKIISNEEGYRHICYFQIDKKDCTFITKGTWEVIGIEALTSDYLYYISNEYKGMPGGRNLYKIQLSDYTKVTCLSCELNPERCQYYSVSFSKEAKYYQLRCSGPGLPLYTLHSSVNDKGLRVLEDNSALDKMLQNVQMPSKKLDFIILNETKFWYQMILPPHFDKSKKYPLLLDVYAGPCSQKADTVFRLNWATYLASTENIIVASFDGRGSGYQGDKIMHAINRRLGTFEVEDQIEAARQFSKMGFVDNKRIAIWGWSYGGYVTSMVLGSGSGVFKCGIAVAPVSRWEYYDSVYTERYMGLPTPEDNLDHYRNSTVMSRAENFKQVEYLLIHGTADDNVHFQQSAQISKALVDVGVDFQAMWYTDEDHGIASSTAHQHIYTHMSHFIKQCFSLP
class 1 if IC50 is below 10 nM. class 0 if not; exact matches included in class 0.

Example entries begin here.
# given_smiles, class_label
records = [
    ("CC#CCn1c(N(C)CC(C)(C)N)nc2cnn(Cc3ccccc3C#N)c(=O)c21", "class 0"),
    ("CC#CCn1c(N(C)C[C@H](C)N)nc2cnn(Cc3ccccc3C#N)c(=O)c21", "class 0"),
]

Q: Does the reported IC50 of the following compound sit strictly below 10 nM? `CC#CCn1c(N(C)CCN)nc2ccn(Cc3nc(C)cc4ccccc34)c(=O)c21`
Result: class 0

Q: Item: `CC#CCn1c(N(C)C[C@H](C)N)nc2cnn(Cc3nc(C)c4ccccc4n3)c(=O)c21`
Result: class 1

Q: Item: `CC#CCn1c(N(C)CCN)nc2cnn(Cc3nc(C)c4ccccc4n3)c(=O)c21`
Result: class 1
